- Target desc: T1, SARS-CoV2 spike RBD variant strain (SRD-C52H3, Acro Biosystems, E484K) (SARS-CoV-2, UniProt P0DTC2 319-537)
- T1 construct: domain: RBD
- Method description: BLI (Octet), biotinylated RBD on SA sensor, VHH as analyte, 1:1 fit
pKd: −log10 of the molar value.
Short version: pKd at least 7 is criterion met, less is criterion not met.

Examples with answers:
| Binder | Discrete label |
| --- | --- |
| Bacillus subtilis-derived VHH-COVE5 (VHH) VHH: EVQLVESGGGLVQAGGSLRLSCTASDQIFDNYNMAWFRQSPGKEREFVAALSWGDSNTGYADSVKGRFTISRDNAKNTVYLQMNSLKPEDTAVYYCYAVTWLRGDYWGQGTQVTVSS | criterion not met |
| Bacillus subtilis-derived VHH-COVE9 (VHH) VHH: EVQLVESGGGLVQPGGSLRLSCAASGTIFSTNAMSWYRQAPGKQRELVAAITSGGNTNYADSVKGRFTISRDNAKNTVYLQMNSLKPEDTAVYYCNAPGVVTGSYDVRNYWGQGTQVTVSS | criterion met |
| Bacillus subtilis-derived VHH-COVE8 (VHH) VHH: EVQLVESGGGLVQPGGSLTLSCAASGQTFSSYNMAWFRQSPGKEREFVATISWGGGSTGYADSVKGRFTISRDHAKNTVYLQMKDLKPEDTGAYYCYLVGLFGIQASDYWGQGTQVTVSS | criterion not met |

[ask] Is reported pKd greater than or equal to 7 here: Bacillus subtilis-derived VHH-COVE2 (VHH) VHH: AEVQLVESGGGLVQAGDSLRLSCAATRRTSSTYAMGWFRQAPGKGLEWVAAISWDGGRTYYAESVKGRFTISRDNAKNTVYLQMNSLKPEDTAVYYCYSFGGSDFLMDYWGQGTQVTVSSGGGSHHHHHH
[reply] criterion met
